Target or system serotonin 2 receptor (Rattus norvegicus): recorded Ki listed per item.
Structures can show the parent of a compound that is named as a salt.
endpoint.label: Ki

>>> print(df.to_string())
                                    compound                             tested_target  endpoint_label      result
 0  CCCC(=O)Nc1ncc(-c2cc3ccccc3c(N3CCN(CC)CC3)n2)cn1  serotonin 2 receptor (Rattus norvegicus)              Ki   0.0073 µM
 1  CCCS(=O)(=O)NCc1ccc(-c2cc3ccccc3c(N3CCN(CC)CC3)n2)cc1Cl [Example 92, Hydrochloride]  serotonin 2 receptor (Rattus norvegicus)              Ki   0.0007 µM
 2  CCN1CCN(c2nc(-c3ccc(OCCCNC(C)=O)cc3)cc3ccccc23)CC1 [Example 50, Hydrochloride]  serotonin 2 receptor (Rattus norvegicus)              Ki   0.0219 µM
 3  CCN1CCN(c2nc(-c3ccc(N4CCOCC4)nc3)cc3ccsc23)CC1 [Example 263, Hydrochloride]  serotonin 2 receptor (Rattus norvegicus)              Ki  0.00089 µM
 4  CCN1CCN(c2nc(-c3ccc(C(O)C4CCCCC4)cc3)cc3ccsc23)CC1 (stereo not shown) [Example 457, dihydrochloride]  serotonin 2 receptor (Rattus norvegicus)              Ki    0.281 µM
 5  CCN1CCN(c2nc(-c3ccc(C(F)CCO)cc3)cc3ccccc23)CC1 (stereo not shown)  serotonin 2 receptor (Rattus norvegicus)              Ki  0.00247 µM
 6  CCN1CCN(c2nc(CCc3ccc(OC)cc3)cc3ccccc23)CC1  serotonin 2 receptor (Rattus norvegicus)              Ki   0.0306 µM
 7  CCN1CCN(c2nc(-c3cc(OC)ccn3)cc3ccccc23)CC1 [Example 335, dihydrochloride]  serotonin 2 receptor (Rattus norvegicus)              Ki   0.0203 µM
 8  CCCC(=O)Nc1ccc(-c2cc3ccccc3c(N3CCN(CC)CC3)n2)cc1 [Example 70, Hydrochloride]  serotonin 2 receptor (Rattus norvegicus)              Ki   0.0055 µM
 9  CCN1CCN(c2nc(C#Cc3ccc(OC)cc3)cc3ccccc23)CC1 [Example 178, Dihydrochloride]  serotonin 2 receptor (Rattus norvegicus)              Ki   0.0002 µM
10  CCN1CCN(c2nc(-c3ccc(C(F)CCO)cc3)cc3cccnc23)CC1 (stereo not shown) [Example 249, Dihydrochloride]  serotonin 2 receptor (Rattus norvegicus)              Ki   0.0281 µM
11  CCN1CCN(c2nc(-c3ccc(CCCO)cc3)cc3cccnc23)CC1 [Example 247, Dihydrochloride]  serotonin 2 receptor (Rattus norvegicus)              Ki   0.0287 µM
12  CCN1CCN(c2nc(-c3ccc(C(=O)NCCO)cc3)cc3ccccc23)CC1 [Example 346, dihydrochloride]  serotonin 2 receptor (Rattus norvegicus)              Ki   0.0417 µM
13  CCN1CCN(c2nc(-c3ccc(CO)c(CO)c3)cc3ccccc23)CC1 [Example 394, Dihydrochloride]  serotonin 2 receptor (Rattus norvegicus)              Ki   0.0329 µM
14  CCN1CCN(c2nc(NS(=O)(=O)c3ccc(OC)cc3)cc3ccccc23)CC1  serotonin 2 receptor (Rattus norvegicus)              Ki    0.332 µM
15  CCN1CCN(c2nc(-c3ccc(C(=O)NC4CCCCC4)cc3)cc3ccsc23)CC1 [Example 273, dihydrochloride]  serotonin 2 receptor (Rattus norvegicus)              Ki  0.00911 µM
16  CCN1CCN(c2nc(-c3ccc(C(O)C(C)(C)CO)cc3)cc3ccccc23)CC1 (stereo not shown) [Example 391, Dihydrochloride]  serotonin 2 receptor (Rattus norvegicus)              Ki   0.0128 µM
17  CCN1CCN(c2nc(-c3ccc(CN4CCSCC4)cc3)cc3ccccc23)CC1 [Example 94, Hydrochloride]  serotonin 2 receptor (Rattus norvegicus)              Ki   0.0412 µM
18  CCN1CCN(c2nc(-c3ccc(OCC(C)(C)O)cc3)cc3sccc23)CC1 [Example 290, dihydrochloride]  serotonin 2 receptor (Rattus norvegicus)              Ki  0.00135 µM
19  CCN1CCN(c2nc(NCc3ccc(OC)cc3)cc3ccccc23)CC1 [Example 220, oxalate]  serotonin 2 receptor (Rattus norvegicus)              Ki  0.00201 µM
20  CCN1CCN(c2nc(-c3ccc(CC(C)=O)cc3)cc3ccccc23)CC1 [Example 375, dihydrochloride]  serotonin 2 receptor (Rattus norvegicus)              Ki   0.0076 µM
21  CCN1CCN(c2nc(-c3ccc(CCO)cc3)cc3ccccc23)CC1 [Example 351, dihydrochloride]  serotonin 2 receptor (Rattus norvegicus)              Ki   0.0064 µM
22  CCCNS(=O)(=O)c1ccc(-c2cc3ccccc3c(N3CCN(CC)CC3)n2)cc1 [Example 353, dihydrochloride]  serotonin 2 receptor (Rattus norvegicus)              Ki  0.00024 µM
23  CCN1CCN(c2nc(-c3ccc(OC)cc3OC)cc3ccccc23)CC1 [Example 12, Dihydrochloride]  serotonin 2 receptor (Rattus norvegicus)              Ki  0.00532 µM
24  CCN1CCN(c2nc(-c3ccc(CS(C)(=O)=O)cc3)cc3ccccc23)CC1 [Example 90, Hydrochloride]  serotonin 2 receptor (Rattus norvegicus)              Ki   0.0129 µM
25  CCN1CCN(c2nc(-c3ccc(OCCO)cc3)cc3ccccc23)CC1 [Example 36, dihydrochloride]  serotonin 2 receptor (Rattus norvegicus)              Ki   0.0039 µM
26  CCN1CCN(c2nc(CC(O)c3ccccc3)cc3ccccc23)CC1 (stereo not shown)  serotonin 2 receptor (Rattus norvegicus)              Ki   0.0224 µM
27  CCN1CCN(c2nc(NC(=O)c3ccccc3)cc3ccccc23)CC1  serotonin 2 receptor (Rattus norvegicus)              Ki    0.129 µM
28  CCN1CCN(c2nc(/C=C/c3cccc(OCCO)c3)cc3ccsc23)CC1 [Example 430, hydrochloride]  serotonin 2 receptor (Rattus norvegicus)              Ki   0.0117 µM
29  CCN1CCN(c2nc(-c3ccc(CC(C)(C)CO)cc3)cc3ccsc23)CC1 [Example 442, dihydrochloride]  serotonin 2 receptor (Rattus norvegicus)              Ki  0.00266 µM
30  CCN1CCN(c2nc(-c3ccc(O[C@H](C)CO)cc3)cc3ccoc23)CC1 [Example 302, dihydrochloride]  serotonin 2 receptor (Rattus norvegicus)              Ki     0.03 µM
